Target: EML4-ALK wt v1 in NIH-3T3 cells (Homo sapiens, UniProt Q9UM73)
Sequence (Q9UM73 with tags, fused parts or gaps): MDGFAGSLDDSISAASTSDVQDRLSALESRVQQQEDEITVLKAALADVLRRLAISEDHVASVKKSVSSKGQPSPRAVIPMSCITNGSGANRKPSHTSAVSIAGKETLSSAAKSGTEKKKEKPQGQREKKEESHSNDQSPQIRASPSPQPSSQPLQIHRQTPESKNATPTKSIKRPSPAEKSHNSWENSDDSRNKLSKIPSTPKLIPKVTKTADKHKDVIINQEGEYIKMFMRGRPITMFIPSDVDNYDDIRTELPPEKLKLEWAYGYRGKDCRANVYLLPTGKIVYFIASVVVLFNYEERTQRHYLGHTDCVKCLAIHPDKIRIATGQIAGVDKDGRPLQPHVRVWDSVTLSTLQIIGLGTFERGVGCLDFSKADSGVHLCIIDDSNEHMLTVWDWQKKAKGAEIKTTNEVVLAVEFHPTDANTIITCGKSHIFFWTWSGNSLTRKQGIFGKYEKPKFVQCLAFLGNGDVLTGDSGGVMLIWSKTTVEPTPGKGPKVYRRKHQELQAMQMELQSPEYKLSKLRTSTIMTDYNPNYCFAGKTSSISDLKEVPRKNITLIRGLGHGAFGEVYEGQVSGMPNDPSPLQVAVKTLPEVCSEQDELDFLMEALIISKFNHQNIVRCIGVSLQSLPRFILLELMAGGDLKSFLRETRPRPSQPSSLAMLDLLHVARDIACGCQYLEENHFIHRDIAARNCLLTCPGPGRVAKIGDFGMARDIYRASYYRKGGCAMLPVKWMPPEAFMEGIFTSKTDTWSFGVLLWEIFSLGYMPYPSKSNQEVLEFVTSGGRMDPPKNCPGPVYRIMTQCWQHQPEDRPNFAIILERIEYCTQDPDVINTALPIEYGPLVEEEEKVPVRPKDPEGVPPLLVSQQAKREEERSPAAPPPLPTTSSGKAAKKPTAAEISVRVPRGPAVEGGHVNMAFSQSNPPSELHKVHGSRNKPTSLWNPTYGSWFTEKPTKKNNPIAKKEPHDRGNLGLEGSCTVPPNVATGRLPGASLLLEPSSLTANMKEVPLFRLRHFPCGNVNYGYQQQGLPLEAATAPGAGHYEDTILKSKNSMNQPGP
Friendly reminder: IC50 below 20 nM is condition met, at or above is condition not met.

{"Compound": "CNS(=O)(=O)c1cc(-c2cnc(N)c(O[C@H](C)c3cc(F)ccc3-n3nccn3)c2)ccc1OC", "Class label": "condition met"}
{"Compound": "C[C@@H](Oc1cc(-c2ccc(OC3CCNCC3)nc2)cnc1N)c1cc(F)ccc1-n1nccn1", "Class label": "condition met"}
{"Compound": "CC(Oc1cc(-c2ccnn2C)cnc1N)c1cc(F)ccc1-c1nccn1C (stereo not shown)", "Class label": "condition not met"}
{"Compound": "C[C@@H](Oc1cc(-c2cnn(C3CCNC3)c2)cnc1N)c1cc(F)ccc1-n1nccn1 (stereo partly shown)", "Class label": "condition met"}
{"Compound": "CC(Oc1cc(-c2ccnn2C)cnc1N)c1cc(F)ccc1-n1cccn1 (stereo not shown)", "Class label": "condition not met"}
{"Compound": "C[C@@H](Oc1cc(-c2cnn(C3CCN(C(=O)CN(C)C)CC3)c2)cnc1N)c1cc(F)ccc1-n1nccn1", "Class label": "condition met"}
{"Compound": "COc1ncc(F)cc1[C@@H](C)Oc1cc(-c2ccnn2C)cnc1N", "Class label": "condition not met"}
{"Compound": "COc1ccc(F)cc1C(C)Oc1cc(-c2cc(Cl)nnc2N)cnc1N (stereo not shown)", "Class label": "condition not met"}
{"Compound": "Cc1nn(CC#N)c(C)c1-c1cnc(N)c(O[C@H](C)c2cc(F)ccc2-n2nccn2)c1", "Class label": "condition met"}
{"Compound": "CC(O)Cn1cc(-c2cnc(N)c(O[C@H](C)c3cc(F)ccc3-n3nccn3)c2)cn1 (stereo partly shown)", "Class label": "condition met"}

====

pIC50: −log10 of the molar value.
Quick record of pIC50 values for EML4-ALK wt v1 in NIH-3T3 cells (Homo sapiens).

{"Molecule": "COc1ccc(F)cc1C(C)Oc1cc(-c2ccc(CO)c(S(C)(=O)=O)c2)cnc1N (centres unmarked)", "pIC50": 8.07}
{"Molecule": "C[C@@H](Oc1cc(-c2ccc3c(c2)S(=O)(=O)CC3O)cnc1N)c1cc(F)ccc1-n1nccn1 (some centres unmarked)", "pIC50": 7.46}
{"Molecule": "C[C@@H](Oc1cc(-c2cnc3c(c2)C(C)(C)C(=O)N3)cnc1N)c1cc(F)ccc1-n1nccn1", "pIC50": 7.61}
{"Molecule": "C[C@@H](Oc1cc(-c2cccc(P(C)(C)=O)c2)cnc1N)c1cc(F)ccc1-n1nccn1", "pIC50": 7.42}
{"Molecule": "CC(Oc1cc(-c2ccnn2C)cnc1N)c1cc(F)cc2cccnc12 (centres unmarked)", "pIC50": 5.84}

====

Where a name gives a salt, the structure may show the parent alone.
Quick record of log10 of IC50 values for EML4-ALK wt v1 in NIH-3T3 cells (Homo sapiens, UniProt Q9UM73).
Measured endpoint: log10 of IC50 (log10 of the value in nM)

{"Compound": "C[C@@H](N)c1ccc(-c2cnc(N)c(O[C@H](C)c3cc(F)ccc3-n3nccn3)c2)cc1", "log10 of IC50": 0.42}
{"Compound": "COc1ncccc1-c1cnc(N)c(OC(C)c2cc(F)ccc2N2CCCC2=O)n1 (centres unmarked)", "log10 of IC50": 1.72}
{"Compound": "COc1ccc(F)cc1[C@@H](C)Oc1cc(-c2c(C)nn(CCO)c2C)cnc1N", "log10 of IC50": 1.37}
{"Compound": "Cc1nc(C(C)(C)O)sc1-c1cnc(N)c(O[C@H](C)c2cc(F)ccc2-n2nccn2)n1", "log10 of IC50": 1.18}
{"Compound": "C[C@@H](Oc1cc(-c2ccnc(N3CCN(C)CC3)c2)cnc1N)c1cc(F)ccc1-n1nccn1", "log10 of IC50": 0.83}
{"Compound": "CC(Oc1cc(-c2ccnn2C)cnc1N)c1cc(F)cc2scnc12 (centres unmarked)", "log10 of IC50": 2.42}
{"Compound": "C[C@@H](Oc1cc(-c2ccnc(F)c2F)cnc1N)c1cc(F)ccc1-n1nccn1", "log10 of IC50": 2.35}
{"Compound": "C[C@@H](Oc1cc(-c2cn([C@@H]3C[C@H]4CC[C@@H](C3)N4)nc2C#N)cnc1N)c1cc(F)ccc1-n1nccn1", "log10 of IC50": 1.20}
{"Compound": "C[C@@H](Oc1cc(-c2cnn([C@@H]3C[C@H]4CC[C@@H](C3)N4)c2C#N)cnc1N)c1cc(F)ccc1-n1nccn1", "log10 of IC50": 0.54}
{"Compound": "CC(Oc1cc(-c2ccnn2C)nnc1N)c1cc(F)ccc1-n1cccn1 (centres unmarked)", "log10 of IC50": 3.25}
{"Compound": "COc1ncc(F)cc1C(C)Oc1cc(-c2ccnn2C)cnc1N (centres unmarked) [Example 33, monohydrochloride]", "log10 of IC50": 2.58}
{"Compound": "CC(C)n1cc(-c2cnc(N)c(O[C@H](C)c3cc(F)ccc3-n3nccn3)c2)cn1", "log10 of IC50": 1.41}
{"Compound": "COc1ccc(F)cc1[C@@H](C)Oc1cc(-c2cncn2C)cnc1N", "log10 of IC50": 1.68}
{"Compound": "Cc1n[nH]cc1-c1cnc(N)c(OC(C)c2cc(F)ccc2Cl)c1 (centres unmarked)", "log10 of IC50": 2.03}
{"Compound": "C[C@@H](Oc1cc(-c2c(F)cnn2C)cnc1N)c1cc(F)ccc1-n1nccn1", "log10 of IC50": 2.18}
{"Compound": "CC(Oc1nc(-c2cn(C)cn2)cnc1N)c1cc(F)ccc1Cl (centres unmarked)", "log10 of IC50": 2.80}
{"Compound": "COc1nc(CO)ccc1-c1cnc(N)c(O[C@H](C)c2cc(F)ccc2-n2nccn2)c1", "log10 of IC50": 1.10}
{"Compound": "COc1ccc(F)cc1C(C)Oc1nc(-c2nccn2C)cnc1N (centres unmarked)", "log10 of IC50": 2.74}
{"Compound": "C[C@@H](Oc1cc(-c2ccc3c(c2)CCS3(=O)=O)cnc1N)c1cc(F)ccc1-n1nccn1", "log10 of IC50": 1.12}
